# target_entity: JAK1 (Homo sapiens, UniProt P23458)
# Construct: JAK1 (aa 850-1154) and TYK2 (aa 871-1187) are expressed with an N-terminally fused GST-tag; GST (N)
# Sequence (P23458 850-1154): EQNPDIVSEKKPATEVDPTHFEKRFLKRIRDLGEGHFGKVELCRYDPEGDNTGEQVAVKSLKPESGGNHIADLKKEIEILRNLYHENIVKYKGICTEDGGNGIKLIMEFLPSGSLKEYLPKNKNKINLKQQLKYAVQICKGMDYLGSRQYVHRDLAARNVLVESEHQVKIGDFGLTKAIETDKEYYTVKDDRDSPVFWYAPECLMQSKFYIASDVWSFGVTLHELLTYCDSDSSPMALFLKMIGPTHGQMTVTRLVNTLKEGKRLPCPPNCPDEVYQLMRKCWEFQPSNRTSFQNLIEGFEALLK
# procedure_text: JAK kinase assay (HTRF, phosphorylation of synthetic peptide), JAK1
# test_settings: catalytic domain, ATP at Km (7 μM); read-out: JAK1 kinase inhibitory activity (EC50)
readout_label: EC50

For orientation, consider the following solved cases.
CN(C(=O)C1CCC(F)(F)CC1)S(=O)(=O)N1CCN(c2ncnc3[nH]ccc23)CC12CC2 : < 0.1 µM
CN(C[C@@H]1CCCN1C(=O)CO)S(=O)(=O)N1CCN(c2ncnc3[nH]ccc23)CC12CC2 : < 0.1 µM
NS(=O)(=O)N1CCN(c2ncnc3[nH]ccc23)CC12CC2 : < 0.1 µM
N#CC1CCCN(S(=O)(=O)N2CCN(c3ncnc4[nH]ccc34)CC23CC3)C1 (centres unmarked) : < 0.1 µM
N#CCN(CCc1ccccc1)S(=O)(=O)N1CCN(c2ncnc3[nH]ccc23)CC12CC2 : < 0.1 µM
CN(Cc1ccccc1F)S(=O)(=O)N1CCN(c2ncnc3[nH]ccc23)CC12CC2 : < 0.1 µM
CN(CCOc1ccc(Cl)cc1)S(=O)(=O)N1CCN(c2ncnc3[nH]ccc23)CC12CC2 : < 0.1 µM
CN(C(=O)CC1CCCC1)S(=O)(=O)N1CCN(c2ncnc3[nH]ccc23)CC12CC2 : < 0.1 µM

In: Record lookup: for JAK1 (Homo sapiens, UniProt P23458), what EC50 belongs to "CN(C1CC1)S(=O)(=O)N1CCN(c2ncnc3[nH]ccc23)CC12CC2" ?
Out: < 0.1 µM

In: Record lookup: for JAK1 (Homo sapiens, UniProt P23458), what EC50 belongs to "CN(CC1CCCC1)S(=O)(=O)N1CCN(c2ncnc3[nH]ccc23)CC12CC2" ?
Out: < 0.1 µM

In: Record lookup: for JAK1 (Homo sapiens, UniProt P23458), what EC50 belongs to "N#CCCNS(=O)(=O)N1CCN(c2ncnc3[nH]ccc23)CC12CC2" ?
Out: < 0.1 µM

In: Record lookup: for JAK1 (Homo sapiens, UniProt P23458), what EC50 belongs to CN(CC1CCCNC1)S(=O)(=O)N1CCN(c2ncnc3[nH]ccc23)CC12CC2 (centres unmarked) ?
Out: 0.1 to 0.5 µM

In: Record lookup: for JAK1 (Homo sapiens, UniProt P23458), what EC50 belongs to "CN(C1CCC1)S(=O)(=O)N1CCN(c2ncnc3[nH]ccc23)CC12CC2" ?
Out: < 0.1 µM

In: Record lookup: for JAK1 (Homo sapiens, UniProt P23458), what EC50 belongs to "N#CCCCN(CCCC#N)S(=O)(=O)N1CCN(c2ncnc3[nH]ccc23)CC12CC2" ?
Out: < 0.1 µM

In: Record lookup: for JAK1 (Homo sapiens, UniProt P23458), what EC50 belongs to "CN(Cc1ccccc1)S(=O)(=O)N1CCN(c2ncnc3[nH]ccc23)CC12CC2" ?
Out: < 0.1 µM

In: Record lookup: for JAK1 (Homo sapiens, UniProt P23458), what EC50 belongs to "CN(CCC1CCCCC1)S(=O)(=O)N1CCN(c2ncnc3[nH]ccc23)CC12CC2" ?
Out: < 0.1 µM

In: Record lookup: for JAK1 (Homo sapiens, UniProt P23458), what EC50 belongs to "CN(CCOc1ccccc1C#N)S(=O)(=O)N1CCN(c2ncnc3[nH]ccc23)CC12CC2" ?
Out: < 0.1 µM

====

# target_entity: JAK1 (Homo sapiens, UniProt P23458)
# Construct: JAK1 (aa 850-1154) and TYK2 (aa 871-1187) are expressed with an N-terminally fused GST-tag; GST (N)
# procedure_text: JAK kinase assay (HTRF, phosphorylation of synthetic peptide), JAK1
# test_settings: catalytic domain, ATP at Km (7 μM); read-out: JAK1 kinase inhibitory activity (EC50)
pEC50: −log10 of the molar value.
readout_label: pEC50

CN(CC1CCN(C(=O)CCC#N)C1)S(=O)(=O)N1CCN(c2ncnc3[nH]ccc23)CC12CC2 (centres unmarked) : > 7.00
CN(CC1CCCCO1)S(=O)(=O)N1CCN(c2ncnc3[nH]ccc23)CC12CC2 (centres unmarked) : > 7.00
CN(CCOc1ccccc1)S(=O)(=O)N1CCN(c2ncnc3[nH]ccc23)CC12CC2 : > 7.00
CN(C1CN(S(C)(=O)=O)C1)S(=O)(=O)N1CCN(c2ncnc3[nH]ccc23)CC12CC2 : > 7.00
CN(C)CCCN(C1CCC1)S(=O)(=O)N1CCN(c2ncnc3[nH]ccc23)CC12CC2 : 6.30 to 7.00
CN(CC1CC(F)(F)CN1)S(=O)(=O)N1CCN(c2ncnc3[nH]ccc23)CC12CC2 (centres unmarked) : > 7.00
CC(C)N(C)S(=O)(=O)N1CCN(c2ncnc3[nH]ccc23)CC12CC2 : > 7.00

Lab note: next compound to report on.
In: Record lookup: for JAK1 (Homo sapiens, UniProt P23458), what pEC50 belongs to "CN(CCCc1ccccc1)S(=O)(=O)N1CCN(c2ncnc3[nH]ccc23)CC12CC2" ?
Out: > 7.00

====

# target_entity: TYK2 (Homo sapiens)
# Construct: JAK1 (aa 850-1154) and TYK2 (aa 871-1187) are expressed with an N-terminally fused GST-tag; GST (N)
# Sequence (P29597 871-1187): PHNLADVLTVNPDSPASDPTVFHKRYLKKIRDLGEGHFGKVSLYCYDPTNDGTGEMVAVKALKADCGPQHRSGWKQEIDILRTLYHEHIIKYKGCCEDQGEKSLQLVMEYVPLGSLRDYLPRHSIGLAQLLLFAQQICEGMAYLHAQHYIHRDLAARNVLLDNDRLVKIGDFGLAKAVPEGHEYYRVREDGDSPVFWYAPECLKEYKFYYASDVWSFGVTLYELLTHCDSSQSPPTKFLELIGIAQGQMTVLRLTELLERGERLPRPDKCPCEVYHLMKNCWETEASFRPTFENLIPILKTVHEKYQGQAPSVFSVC
# procedure_text: JAK kinase assay (HTRF, phosphorylation of synthetic peptide), TYK2
# test_settings: catalytic domain, ATP at Km (13 μM); read-out: TYK2 kinase inhibitory activity (EC50)
readout_label: EC50

CCCS(=O)(=O)N1CCC(CN(C)S(=O)(=O)N2CCN(c3ncnc4[nH]ccc34)CC23CC3)C1 (stereo not shown) : 0.1 to 0.5 µM
CN(CCCC#N)S(=O)(=O)N1CCN(c2ncnc3[nH]ccc23)CC12CC2 : < 0.1 µM
CN(CC1CCN(C(=O)CCO)CC1)S(=O)(=O)N1CCN(c2ncnc3[nH]ccc23)CC12CC2 : 0.1 to 0.5 µM

Lab note: next molecule to report on.
In: Record request: EC50 value, item "O=S(=O)(NOCc1ccccc1)N1CCN(c2ncnc3[nH]ccc23)CC12CC2"
Out: 0.1 to 0.5 µM

====

# target_entity: JAK3 (Homo sapiens, UniProt P52333)
# Construct: All four purified enzymes contain only the catalytic domain; His (N)
# Sequence (P52333 822-1111 limits assumed): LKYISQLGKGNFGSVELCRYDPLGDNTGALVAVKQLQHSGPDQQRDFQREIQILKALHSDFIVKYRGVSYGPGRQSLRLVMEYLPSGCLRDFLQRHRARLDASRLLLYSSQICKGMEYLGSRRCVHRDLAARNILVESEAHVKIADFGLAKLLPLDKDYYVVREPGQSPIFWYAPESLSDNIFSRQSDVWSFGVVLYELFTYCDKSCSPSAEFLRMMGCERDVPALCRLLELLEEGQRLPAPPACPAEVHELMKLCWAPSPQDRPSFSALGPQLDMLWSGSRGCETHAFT
# procedure_text: JAK kinase assay (HTRF, phosphorylation of synthetic peptide), JAK3
# test_settings: catalytic domain, ATP at Km (2 μM); read-out: JAK3 kinase inhibitory activity (EC50)
readout_label: EC50

CN(C(=O)C1CCS(=O)(=O)C1)S(=O)(=O)N1CCN(c2ncnc3[nH]ccc23)CC12CC2 (centres unmarked) : < 100 nM
CN(CC1CCN(S(C)(=O)=O)C1)S(=O)(=O)N1CCN(c2ncnc3[nH]ccc23)CC12CC2 (centres unmarked) : < 100 nM
O=S(=O)(N(CCc1ccccc1)CC1CCCCC1)N1CCN(c2ncnc3[nH]ccc23)CC12CC2 : > 500 nM
CN(CC(=O)c1ccccc1)S(=O)(=O)N1CCN(c2ncnc3[nH]ccc23)CC12CC2 : 100 to 500 nM

In: Record request: EC50 value, item "O=S(=O)(N(CCc1ccccc1)CCc1cccc(F)c1)N1CCN(c2ncnc3[nH]ccc23)CC12CC2"
Out: > 500 nM

In: Record request: EC50 value, item "CN(C[C@@H]1CCCN1S(C)(=O)=O)S(=O)(=O)N1CCN(c2ncnc3[nH]ccc23)CC12CC2"
Out: < 100 nM

In: Record request: EC50 value, item CC(CN(C)S(=O)(=O)N1CCN(c2ncnc3[nH]ccc23)CC12CC2)c1ccccc1 (centres unmarked)
Out: < 100 nM

In: Record request: EC50 value, item "CN(C(=O)CC(F)(F)F)S(=O)(=O)N1CCN(c2ncnc3[nH]ccc23)CC12CC2"
Out: 100 to 500 nM

====

# target_entity: JAK3 (Homo sapiens, UniProt P52333)
# Construct: All four purified enzymes contain only the catalytic domain; His (N)
# procedure_text: JAK kinase assay (HTRF, phosphorylation of synthetic peptide), JAK3
# test_settings: catalytic domain, ATP at Km (2 μM); read-out: JAK3 kinase inhibitory activity (EC50)
pEC50: −log10 of the molar value.
Here, each record is paired with measured pEC50 data.

CN(CCC1CCS(=O)(=O)C1)S(=O)(=O)N1CCN(c2ncnc3[nH]ccc23)CC12CC2 (centres unmarked) : > 7.00

In: Record lookup: for JAK3 (Homo sapiens, UniProt P52333), what pEC50 belongs to "C=C1CCC(CN(C)S(=O)(=O)N2CCN(c3ncnc4[nH]ccc34)CC23CC3)CC1" ?
Out: > 7.00

In: Record lookup: for JAK3 (Homo sapiens, UniProt P52333), what pEC50 belongs to "N#CCN(CCc1ccccc1)S(=O)(=O)N1CCN(c2ncnc3[nH]ccc23)CC12CC2" ?
Out: > 7.00

In: Record lookup: for JAK3 (Homo sapiens, UniProt P52333), what pEC50 belongs to "CN(CCCc1ccccc1)S(=O)(=O)N1CCN(c2ncnc3[nH]ccc23)CC12CC2" ?
Out: 6.30 to 7.00

In: Record lookup: for JAK3 (Homo sapiens, UniProt P52333), what pEC50 belongs to "CN(CC1CCOCC1)S(=O)(=O)N1CCN(c2ncnc3[nH]ccc23)CC12CC2" ?
Out: 6.30 to 7.00

In: Record lookup: for JAK3 (Homo sapiens, UniProt P52333), what pEC50 belongs to "N#CCCCN(CCCc1ccccc1)S(=O)(=O)N1CCN(c2ncnc3[nH]ccc23)CC12CC2" ?
Out: > 7.00

In: Record lookup: for JAK3 (Homo sapiens, UniProt P52333), what pEC50 belongs to N#CCCN(CC1CCCO1)S(=O)(=O)N1CCN(c2ncnc3[nH]ccc23)CC12CC2 (centres unmarked) ?
Out: > 7.00

In: Record lookup: for JAK3 (Homo sapiens, UniProt P52333), what pEC50 belongs to "N#CCCCN(CCO)S(=O)(=O)N1CCN(c2ncnc3[nH]ccc23)CC12CC2" ?
Out: > 7.00

In: Record lookup: for JAK3 (Homo sapiens, UniProt P52333), what pEC50 belongs to N#CCN(CC1CCS(=O)(=O)C1)S(=O)(=O)N1CCN(c2ncnc3[nH]ccc23)CC12CC2 (centres unmarked) ?
Out: > 7.00

In: Record lookup: for JAK3 (Homo sapiens, UniProt P52333), what pEC50 belongs to "O=S(=O)(NOCc1ccccc1)N1CCN(c2ncnc3[nH]ccc23)CC12CC2" ?
Out: 6.30 to 7.00

In: Record lookup: for JAK3 (Homo sapiens, UniProt P52333), what pEC50 belongs to "CCC(=O)CN(CCc1ccccc1)S(=O)(=O)N1CCN(c2ncnc3[nH]ccc23)CC12CC2" ?
Out: 6.30 to 7.00
